biological target: PAR2 (HT-29 cells) (Homo sapiens); construct: host or cells: HT-29; test: Ca FLIPR TETRA assay, ANTAGONIST mode, activator 8 μM SLIGKV; format: cell-based; conditions: HT-29 cells; activator 8 μM SLIGKV; Method A: maximal concentration of antagonist 0.1, 1 or 2 μM
Sequence (P55085 26-397): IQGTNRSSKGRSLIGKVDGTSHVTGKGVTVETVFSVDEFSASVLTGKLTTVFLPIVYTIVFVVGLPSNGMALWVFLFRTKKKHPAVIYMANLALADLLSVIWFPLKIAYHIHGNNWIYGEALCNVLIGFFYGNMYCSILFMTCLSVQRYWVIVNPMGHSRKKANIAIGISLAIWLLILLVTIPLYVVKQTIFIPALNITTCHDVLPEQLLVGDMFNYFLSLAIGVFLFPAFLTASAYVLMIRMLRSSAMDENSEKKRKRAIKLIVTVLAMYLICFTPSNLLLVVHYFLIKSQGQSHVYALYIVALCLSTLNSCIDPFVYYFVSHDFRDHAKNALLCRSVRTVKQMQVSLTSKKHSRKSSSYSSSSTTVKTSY
Reported metric: pIC50
Keep it numeric: pIC50 is minus log10 of the concentration in mol/L.

Request: pIC50, test system PAR2 (HT-29 cells) (Homo sapiens), entry CC(C)(C)c1cc(-c2ccc(Cl)c(F)c2)nc2cc(C(=O)N3CCC(CC(=O)NC#N)CC3(C)C)oc12 (centres unmarked) [Example I-432]
9.70

Please state recorded pIC50 (tested on PAR2 (HT-29 cells) (Homo sapiens)) of Cc1c(C(=O)O)ccnc1N1CCN(C(=O)c2cc3nc(-c4ccc(Cl)c(F)c4)cc(C(C)(C)C)c3o2)C(C)(C)C1 [Example I-538]
9.22

// fetch PAR2 (HT-29 cells) (Homo sapiens) pIC50 for CC(C)(C)c1cc(-c2ccc(Cl)c(F)c2)nc2cc(C(=O)N3CCN(c4nc(C(=O)O)ccc4F)CC3(C)C)oc12 [Example I-501]
10.00

Lab note: need pIC50 for CC(C)(C)c1cc(C2CC3(CCC3)C2)nc2cc(C(=O)N3CCN(c4ccc(C(=O)O)cn4)CC3(C)C)oc12 [Example I-443] on PAR2 (HT-29 cells) (Homo sapiens), anyone have it?
9.30

Query the reported pIC50 for PAR2 (HT-29 cells) (Homo sapiens); item: CN1CC(C)(C)N(C(=O)c2cc3nc(-c4ccc(Cl)c(F)c4)cc(C(C)(C)C)c3o2)CCC1=O [Example I-526]
6.62

Under PAR2 (HT-29 cells) (Homo sapiens): pIC50 value of CC(C)(C)c1cc(C2CCC(Cl)(Cl)CC2)nc2cc(C(=O)N3CCN(C(=O)[C@H]4CC[C@@](C)(C(=O)O)CC4)CC3(C)C)oc12 [Example I-303] ?
9.40

Provide value of pIC50 for this record tested with PAR2 (HT-29 cells) (Homo sapiens): Cc1cnc(N2CCN(C(=O)c3cc4nc(-c5ccc(Cl)c(F)c5)cc(C(C)(C)C)c4o3)C(C)(C)C2)nc1C(=O)O [Example I-520]
9.52

GET /values?readout=pIC50&system=PAR2 (HT-29 cells) (Homo sapiens)&item= CC(C)(C)c1cc(-c2ccc(Cl)cc2)nc2cc(C(=O)N3CCN(c4ncccn4)C(=O)C3(C)C)oc12 [Example I-483]
8.44

Hi! What's the reported pIC50 for CC(C)(C)c1cc(-c2ccc(Cl)c(F)c2)nc2cc(C(=O)N3CCN(c4cncc(C(=O)O)n4)CC3(C)C)oc12 [Example I-469] on PAR2 (HT-29 cells) (Homo sapiens)?
9.52

# get_value(readout= pIC50, system= PAR2 (HT-29 cells) (Homo sapiens)) for CC(C)(C)c1cc(-c2ccc(F)cc2)nc2cc(C(=O)N3CCN(C(C)(C)C)C(=O)C3(C)C)oc12 [Example I-308]
7.85

Form: Entry = CC(C)(C)c1cc(N2CCC[C@@H]2C(F)(F)F)nc2cc(C(=O)N3CCN(C(=O)[C@H]4C[C@](C)(O)C4)CC3(C)C)oc12 [Example I-440] | System = PAR2 (HT-29 cells) (Homo sapiens) | pIC50 = ____
6.28

Give the reported pIC50 for CC(C)(C)c1cc(-c2ccc(Cl)cc2)nc2cc(C(=O)N3CCN(c4nc(C(=O)O)ccc4F)CC3(C)C)oc12 [Example I-502] (system: PAR2 (HT-29 cells) (Homo sapiens)).
9.70

# query: pIC50 | item CC(C)(C)c1cc(-c2ccc(Cl)c(F)c2)nc2cc(C(=O)N3CCN(C(=O)[C@@H]4CCC[C@@H]4C(=O)O)CC3(C)C)oc12 [Example I-545] | system: PAR2 (HT-29 cells) (Homo sapiens)
9.22

Lab request: please report pIC50 under test system PAR2 (HT-29 cells) (Homo sapiens) for CC(C)(C)c1cc(-c2ccc(Cl)cc2)nc2cc(C(=O)N3CCN(c4ncc(C(=O)O)cn4)C(=O)C3(C)C)oc12 [Example I-369]
7.92

Short answer please: pIC50, PAR2 (HT-29 cells) (Homo sapiens), entry Cc1nc(N2CCN(C(=O)c3cc4nc(C5CCC(C)(C)CC5)cc(C(C)(C)C)c4o3)C(C)(C)C2)ccc1C(=O)O [Example I-496]
9.40

Fill in the recorded pIC50 for this compound, with PAR2 (HT-29 cells) (Homo sapiens) as test system: CC(C)(C)c1cc(-c2ccc(Cl)cc2)nc2cc(C(=O)N3CCN(c4cnccn4)CC3(C)C)oc12 [Example I-368]
7.92

So what pIC50 did CC(C)(C)c1cc(-c2ccc(Cl)c(F)c2)nc2cc(C(=O)N3CCN(c4cccc(C(=O)NS(C)(=O)=O)n4)CC3(C)C)oc12 [Example I-540] get with PAR2 (HT-29 cells) (Homo sapiens)?
9.52

// map COc1nc(N2CCN(C(=O)c3cc4nc(-c5ccc(Cl)c(F)c5)cc(C(C)(C)C)c4o3)C(C)(C)C2)ccc1C(=O)O [Example I-498] to recorded pIC50 (system: PAR2 (HT-29 cells) (Homo sapiens))
9.52

Missing value: pIC50, PAR2 (HT-29 cells) (Homo sapiens), entry Cc1ncc(N2CCN(C(=O)c3cc4nc(-c5ccc(Cl)c(F)c5)cc(C(C)(C)C)c4o3)C(C)(C)C2)nc1C(=O)O [Example I-524] . Fill in?
8.70

Can you look up pIC50 on PAR2 (HT-29 cells) (Homo sapiens) for CC(C)(C)c1cc(-c2ccc(Cl)c(F)c2)nc2cc(C(=O)N3CCC(=O)NCC3(C)C)oc12 [Example I-335] ?
7.04

# returns recorded pIC50 (system: PAR2 (HT-29 cells) (Homo sapiens)) for CN1CCN(C(=O)c2cc3nc(C4CCC(F)(F)CC4)cc(C(C)(C)C)c3o2)C(C)(C)C1=O [Example I-312]
6.77

Record CC(C)(C)c1cc(-c2ccc(Cl)c(F)c2)nc2cc(C(=O)N3CCN(c4nc(C(=O)O)ccc4Cl)CC3(C)C)oc12 [Example I-365] : what is its pIC50 with PAR2 (HT-29 cells) (Homo sapiens)?
9.70

Missing value: pIC50, PAR2 (HT-29 cells) (Homo sapiens), entry CC(C)(C)c1cc(-c2ccc(Cl)cc2)nc2cc(C(=O)N3CCN(c4ncc(-c5nnn[nH]5)cn4)CC3(C)C)oc12 [Example I-341] . Fill in?
8.80

Short answer please: pIC50, PAR2 (HT-29 cells) (Homo sapiens), entry Cc1nc(N2CCN(C(=O)c3cc4nc(-c5ccc(Cl)cc5)cc(C(C)(C)C)c4o3)C(C)(C)C2)ncc1C(=O)O [Example I-410]
9.22

For PAR2 (HT-29 cells) (Homo sapiens), provide pIC50 of CC(C)(C)c1cc(-c2ccc(Cl)cc2)nc2cc(C(=O)N3CCN(c4ncc(F)cn4)CC3(C)C)oc12 [Example I-370] please.
7.77

What pIC50 appears in the records for this compound with PAR2 (HT-29 cells) (Homo sapiens)? CC(C)(C)c1cc(-c2ccc(Cl)cc2)nc2cc(C(=O)N3CCN(c4nccc(C(=O)O)n4)CC3(C)C)oc12 [Example I-457]
9.10
